# target-or-system: human GalR3 receptor (Homo sapiens)
# Construct: expressed in transfected cells; host or cells: mouse fibroblast LM(tk-) cells, stably transfected; membranes
# Sequence (O60755 whole entry): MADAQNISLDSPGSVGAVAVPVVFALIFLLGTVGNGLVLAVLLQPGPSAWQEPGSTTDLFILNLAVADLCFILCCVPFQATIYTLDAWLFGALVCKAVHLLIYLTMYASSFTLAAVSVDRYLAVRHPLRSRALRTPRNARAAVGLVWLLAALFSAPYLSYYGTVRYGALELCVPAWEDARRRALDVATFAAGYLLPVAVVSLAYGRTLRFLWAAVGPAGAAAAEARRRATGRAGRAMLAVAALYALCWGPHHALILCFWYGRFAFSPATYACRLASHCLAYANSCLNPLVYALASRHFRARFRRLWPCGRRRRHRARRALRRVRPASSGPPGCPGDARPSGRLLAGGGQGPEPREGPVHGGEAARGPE
# experimental-details: Radioligand binding assay at cloned human GalR3 receptor
# run-parameters: Binding Data; membranes from LM(tk-) cells stably transfected with the human GalR3 receptor
measured-quantity: Ki (nM)

Reference set (5 entries):
* Cc1ccc(Nc2cc(N(C)C)nc(NCc3ccccc3)n2)cc1 | 114
* CN(C)c1cc(Nc2cccc(OCc3ccccc3)c2)nc(N2CCN(c3ccc(Cl)cc3)CC2)n1 | 26
* Cc1ccc(Nc2cc(N(C)C)nc(N3CCN(c4ccccc4F)CC3)n2)cc1 | 117
* CN(C)c1cc(Nc2ccc3c(c2)CCC3)nc(N2CCN(c3ccccc3Cl)CC2)n1 | 54
* COc1cccc(Nc2cc(N(C)C)nc(N3CCN(c4ccc(Cl)cc4)CC3)n2)c1 | 88

[I] Cc1ccc(Nc2cc(N(C)C)nc(N3CCN(c4ccc(Cl)cc4)CC3)n2)cc1C
[II] CN(C)c1cc(Nc2ccc(SC(F)(F)F)c(Cl)c2)nc(N2CCN(c3cccc(Cl)c3)CC2)n1
[III] CN(C)c1cc(Nc2ccc(C3CCCCC3)cc2)nc(N2CCN(c3ccc(Cl)cc3)CC2)n1
[IV] CN(C)c1cc(Nc2cccc(OCc3ccccc3)c2)nc(N2CCN(c3ccccc3F)CC2)n1
Highest Ki first, then in falling order down to the smallest. Give your ranking as a list of the labels in the requested order. II, I, III, IV
(II: 318 nM, I: 129 nM, III: 47 nM, IV: 20 nM)

[A] CN(C)c1cc(Nc2ccc(SC(F)(F)F)c(Cl)c2)nc(N2CCN(c3ccc(Cl)cc3)CC2)n1
[B] COc1cccc(Nc2cc(N(C)C)nc(N3CCN(c4ccccc4F)CC3)n2)c1
[C] CCn1ccc2ccc(Nc3cc(N(C)C)nc(N4CCN(c5ccccn5)CC4)n3)cc21
Write the entries in order, lowest recorded Ki first. Output spec: labels arranged per the requested ranking. B, A, C
(B: 93 nM, A: 138 nM, C: 351 nM)
